Item-by-item account of remaining at 1 h, 1 µM
- MEASUREMENT NOTES: Metabolic stability in human liver microsomes assessed as compound remaining at 1 uM after 1 hr
- Type: ADME, Microsome
- RECORDED CONDITIONS: read-out: Stability
Field: numeric (%). Do not append units.

// solved cases for remaining at 1 h, 1 µM follow
>  <COMPOUND SMILES>
COCC[C@H]1C[C@@H]1c1cncc(OC[C@@H]2CCN2)c1

>  <UNIT ABBREV>
%

>  <remaining at 1 h, 1 µM>
84

$$$$
>  <COMPOUND SMILES>
CNC(=O)OCC[C@H]1C[C@@H]1c1cncc(OC[C@@H]2CCN2)c1

>  <UNIT ABBREV>
%

>  <remaining at 1 h, 1 µM>
98

$$$$

Now examine the next entry.
QUERY: What does the data say about its remaining at 1 h, 1 µM? Entry: "OCC[C@H]1C[C@@H]1c1cncc(OC[C@@H]2CCN2)c1"
RESULT: 80

Each recorded value in this set is attributed to ChEMBL document CHEMBL2021777.
